Assay: chemical genetic growth profiling, strain panel (AID 1159580);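 also: tested at 20 µM; growth read once vehicle control cultures reached saturation at 30 °C; 1 = growth at the plate median or of vehicle wells; lower values mean less growth of the strain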
Details: S. cerevisiae deletion strains, growth OD, locus YAL013W, strain DEP1, hits give low values
The whole screen tested about 5,500 compounds, of which about 2,000 (36%) were called active. Another 18% or so got no clear call; they are omitted. Some of the results follow.
observedProperty: normalized growth
Numbers only.

CCCS(=O)(=O)c1c(C)c(C)n(Cc2ccccc2)c1N :: 1.02
CC(C)(C)c1cc(-c2csc(-c3ccc(Cl)cc3)n2)cc(C(C)(C)C)c1O :: 1
CN1CCCN=C1COC(=O)C(O)(c1ccccc1)C1CCCCC1 (configuration not stated) :: 1.01
C[C@H]1OC(n2cc(F)c(=O)[nH]c2=O)C(O)[C@@H]1O (some centres not stated) :: 1
CSc1nnnn1-c1c(C)cccc1C :: 0.998

Parameter requested: normalized growth. Apply to each item below.
1. C[N+](C)(C)CCCCCC[N+](C)(C)C
2. COc1ccc2c3c1O[C@H]1C[C@@H](O)C=C[C@@]31CCN(C)C2
3. ClC1=C(Cl)C2(Cl)C3C4CC(C5OC45)C3C1(Cl)C2(Cl)Cl (configuration not stated)
4. COc1cc2c(cc1OC)C1C(=O)c3c(OC)cc4c(c3OC1CO2)CCC(C)(C)O4 (configuration not stated)
5. ClC1=C(Cl)C2(Cl)C3C(Cl)C=CC3C1(Cl)C2(Cl)Cl (configuration not stated)
6. O=C(CSc1nnnn1-c1ccccc1)NC1Cc2ccccc2C1

[1.01, 1.01, 0.992, 1.01, 0.999, 1.02]

Parameter requested: normalized growth. Apply to each item below.
1. CCN(CCO)CCCC(C)Nc1ccnc2cc(Cl)ccc12 (configuration not stated)
2. Nc1c(S(=O)(=O)O)cc(Nc2ccc(Nc3nc(Cl)nc(Nc4ccc(S(=O)(=O)O)cc4)n3)c(S(=O)(=O)O)c2)c2c1C(=O)c1ccccc1C2=O
3. C=C1C2CC[C@H]3[C@]4(C)C[C@H](OC5OC(CO)C(OS(=O)(=O)O)C(OS(=O)(=O)O)C5OC(=O)CC(C)C)C[C@@H](C(=O)O)[C@H]4CC[C@]3(C2)[C@H]1O (some centres not stated)
4. C[N+](C)(C)CCCCCCCCCC[N+](C)(C)C
5. CC(C)(C)NC[C@H](O)COc1nsnc1N1CCOCC1
6. COC1=C(OC)C(=O)C(C/C=C(\C)CC/C=C(\C)CC/C=C(\C)CC/C=C(/C)CC/C=C(\C)CC/C=C(\C)CC/C=C(\C)CC/C=C(\C)CC/C=C(\C)CCC=C(C)C)=C(C)C1=O
7. CC(C)(C)c1ccc(-c2nc(-c3cc(C(C)(C)C)c(O)c(C(C)(C)C)c3)cs2)cc1
8. CCOC(=O)c1cnc2cc(C)nn2c1C

[1.01, 0.977, 1.01, 1, 1.01, 0.999, 1.01, 0.994]

Parameter requested: normalized growth. Apply to each item below.
1. Cc1cccc(C)c1OCC(C)N (configuration not stated)
2. COc1ccc(CN2C(=O)CSC2c2ccccn2)cc1 (configuration not stated)
3. CC(N)CCCC(C)(C)O (configuration not stated)

[0.993, 1.01, 0.998]
